Property: IC50; scope: individual molecules
MEASURED_ON: Cholinesterase (Homo sapiens)
Sequence (P06276 whole entry): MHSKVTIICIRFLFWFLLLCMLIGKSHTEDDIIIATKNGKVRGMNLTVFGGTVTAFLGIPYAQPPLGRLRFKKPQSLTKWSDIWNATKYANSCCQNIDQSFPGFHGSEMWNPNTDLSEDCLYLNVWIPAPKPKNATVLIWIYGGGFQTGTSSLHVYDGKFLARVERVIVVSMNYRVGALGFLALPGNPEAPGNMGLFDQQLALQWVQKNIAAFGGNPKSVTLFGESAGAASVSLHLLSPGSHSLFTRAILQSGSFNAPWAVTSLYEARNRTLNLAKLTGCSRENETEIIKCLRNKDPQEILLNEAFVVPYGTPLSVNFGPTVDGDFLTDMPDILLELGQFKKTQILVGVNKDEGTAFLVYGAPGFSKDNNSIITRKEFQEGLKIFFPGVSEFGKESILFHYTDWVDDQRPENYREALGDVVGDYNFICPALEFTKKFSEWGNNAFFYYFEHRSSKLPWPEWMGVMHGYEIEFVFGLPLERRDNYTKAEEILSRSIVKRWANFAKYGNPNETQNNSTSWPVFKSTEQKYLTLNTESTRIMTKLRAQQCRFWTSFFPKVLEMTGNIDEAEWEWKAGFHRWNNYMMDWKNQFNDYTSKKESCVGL
MEASUREMENT_PROTOCOL: Inhibition of human serum BChE using butyrylthiocholine iodide as substrate preincubated for 20 mins by Ellman's method
Write the answer as a number in µM, unit excluded.

Below are worked cases with known answers.
CC1=CC2Cc3nc4cc(Cl)ccc4c(NCCCCCNC(=O)c4cc(O)c5c(c4)C(=O)c4cccc(O)c4C5=O)c3C(C1)C2.Cl (racemic): 0.95
CC1=CC2Cc3nc4cc(Cl)ccc4c(NCCCCCCCNC(=O)c4cc(O)c5c(c4)C(=O)c4cccc(O)c4C5=O)c3C(C1)C2.Cl (racemic): 1.46

# input Sample CC1=CC2Cc3nc4cc(Cl)ccc4c(NCCCCCCNC(=O)c4cc(O)c5c(c4)C(=O)c4cccc(O)c4C5=O)c3C(C1)C2 (racemic) — what was its IC50?
# output 1.07

###

Property: Papp; scope: individual molecules
MEASUREMENT_PROTOCOL: Permeability of the compound by PAMPA assay
Type: physicochemical
MEASUREMENT_CONDITIONS: read-out: permeability
Write the answer as a number in ×10⁻⁶ cm/s, unit excluded.

CC1=C[C@@H]2Cc3nc4cc(Cl)ccc4c(N)c3[C@H](C1)C2: 23.6
CC1=CC2Cc3nc4cc(Cl)ccc4c(NCCCCCCCCCCCNC(=O)c4cc(O)c5c(c4)C(=O)c4cccc(O)c4C5=O)c3C(C1)C2.Cl (racemic): 16.4
CC1=CC2Cc3nc4cc(Cl)ccc4c(NCCCCCCCCCNC(=O)c4cc(O)c5c(c4)C(=O)c4cccc(O)c4C5=O)c3C(C1)C2.Cl (racemic): 21.5
O=C(O)c1cc(O)c2c(c1)C(=O)c1cccc(O)c1C2=O [RHEIN]: 2.7
CC1=CC2Cc3nc4cc(Cl)ccc4c(NCc4ccc(CNC(=O)c5cc(O)c6c(c5)C(=O)c5cccc(O)c5C6=O)cc4)c3C(C1)C2.Cl (racemic): 16.3
CC1=CC2Cc3nc4cc(Cl)ccc4c(NCCCCCCCNC(=O)c4cc(O)c5c(c4)C(=O)c4cccc(O)c4C5=O)c3C(C1)C2.Cl (racemic): 27.5
CC1=C[C@H]2Cc3nc4cc(Cl)ccc4c(N)c3[C@@H](C1)C2.Cl: 25.4
CC1=CC2Cc3nc4cc(Cl)ccc4c(NCCCCCNC(=O)c4cc(O)c5c(c4)C(=O)c4cccc(O)c4C5=O)c3C(C1)C2.Cl (racemic): 20
CC1=CC2Cc3nc4cc(Cl)ccc4c(NCCCCCCCCNC(=O)c4cc(O)c5c(c4)C(=O)c4cccc(O)c4C5=O)c3C(C1)C2.Cl (racemic): 22.4

// next item, Papp requested
# input Sample CC1=CC2Cc3nc4cc(Cl)ccc4c(NCCCCCCCCCCNC(=O)c4cc(O)c5c(c4)C(=O)c4cccc(O)c4C5=O)c3C(C1)C2.Cl (racemic) — what was its Papp?
# output 18.1

###

Property: inhibition; scope: individual compounds
MEASURED_ON: Amyloid-beta precursor protein (Homo sapiens)
MEASUREMENT_PROTOCOL: Inhibition of amyloid beta-42 (unknown origin) aggregation assessed as amyloid fibril formation at 10 uM after 24 hrs by thioflavin T fluorescence method
Write the answer as a number in %, unit excluded.

CC1=CC2Cc3nc4cc(Cl)ccc4c(NCCCCCCCCNC(=O)c4cc(O)c5c(c4)C(=O)c4cccc(O)c4C5=O)c3C(C1)C2.Cl (racemic): 33.1
CC1=C[C@@H]2Cc3nc4cc(Cl)ccc4c(NCCCCCCCCCNC(=O)c4cc(O)c5c(c4)C(=O)c4cccc(O)c4C5=O)c3[C@H](C1)C2: 43.2
CC1=CC2Cc3nc4cc(Cl)ccc4c(NCc4ccc(CNC(=O)c5cc(O)c6c(c5)C(=O)c5cccc(O)c5C6=O)cc4)c3C(C1)C2.Cl (racemic): 32.4

# input Sample CC1=C[C@@H]2Cc3nc4cc(Cl)ccc4c(N)c3[C@H](C1)C2 — what was its inhibition?
# output 11.5
